molecular target: PIK3CA (human) (UniProt P42336)
Sequence (P42336 whole entry, looked up): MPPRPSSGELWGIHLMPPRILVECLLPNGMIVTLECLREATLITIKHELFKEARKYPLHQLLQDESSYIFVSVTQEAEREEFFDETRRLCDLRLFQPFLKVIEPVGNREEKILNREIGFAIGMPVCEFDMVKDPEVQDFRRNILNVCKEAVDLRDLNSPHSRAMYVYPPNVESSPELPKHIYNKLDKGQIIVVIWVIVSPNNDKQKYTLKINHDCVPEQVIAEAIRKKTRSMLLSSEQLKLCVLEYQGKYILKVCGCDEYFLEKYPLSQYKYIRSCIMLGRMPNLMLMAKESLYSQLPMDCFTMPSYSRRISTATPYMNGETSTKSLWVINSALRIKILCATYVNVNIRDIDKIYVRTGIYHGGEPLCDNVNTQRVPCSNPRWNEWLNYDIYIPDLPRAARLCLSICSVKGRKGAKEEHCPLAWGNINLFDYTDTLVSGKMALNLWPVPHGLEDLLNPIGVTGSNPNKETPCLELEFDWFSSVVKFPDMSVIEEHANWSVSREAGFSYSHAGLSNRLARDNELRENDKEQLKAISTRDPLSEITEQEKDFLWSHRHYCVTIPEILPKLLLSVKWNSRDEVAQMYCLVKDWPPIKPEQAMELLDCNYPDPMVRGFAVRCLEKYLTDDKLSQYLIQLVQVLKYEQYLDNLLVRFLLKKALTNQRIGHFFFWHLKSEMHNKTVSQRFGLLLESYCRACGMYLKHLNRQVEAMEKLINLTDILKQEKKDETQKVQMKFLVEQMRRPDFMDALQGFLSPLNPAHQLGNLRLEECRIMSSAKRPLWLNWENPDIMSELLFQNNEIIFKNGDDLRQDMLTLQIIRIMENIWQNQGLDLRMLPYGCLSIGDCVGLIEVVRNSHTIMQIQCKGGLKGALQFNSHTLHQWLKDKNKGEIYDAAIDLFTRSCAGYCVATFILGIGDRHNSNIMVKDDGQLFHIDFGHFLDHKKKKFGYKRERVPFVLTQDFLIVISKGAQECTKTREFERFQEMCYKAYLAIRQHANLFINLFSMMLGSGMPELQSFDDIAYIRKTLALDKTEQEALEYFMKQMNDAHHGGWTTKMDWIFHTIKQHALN
Classify: MET when IC50 is strictly less than 60 nM; NOT MET when IC50 is not.

Bench note: check whether CNCCN(C)c1ccc([N+](=O)[O-])cc1S(=O)(=O)NN=C(C)c1cnn2ccc(Br)cc12 shows IC50 below 60 nM
MET

Bench note: check whether CC(=NNS(=O)(=O)c1cc([N+](=O)[O-])ccc1N(C)Cc1cccnc1)c1cnn2ccc(Br)cc12 shows IC50 below 60 nM
MET

Bench note: check whether CC(=NNS(=O)(=O)c1cc([N+](=O)[O-])ccc1C)c1cnn2ccc(C#N)cc12 shows IC50 below 60 nM
MET

Bench note: check whether CC(=NNS(=O)(=O)c1cc([N+](=O)[O-])ccc1N(C)CCN)c1cnn2ccc(C#N)cc12.CCCCCC shows IC50 below 60 nM
NOT MET

Bench note: check whether CC(=NN(C)S(=O)(=O)c1cc([N+](=O)[O-])ccc1N(C)CCN(C)C)c1cnn2ccc(C#N)cc12 shows IC50 below 60 nM
NOT MET

Bench note: check whether CCN(CC)CCN(C)c1ccc([N+](=O)[O-])cc1S(=O)(=O)NN=C(C)c1cnn2ccc(C#N)cc12 shows IC50 below 60 nM
NOT MET

Bench note: check whether CC(=NNS(=O)(=O)c1cc([N+](=O)[O-])ccc1N(C)CCN1CCN(S(C)(=O)=O)CC1)c1cnn2ccc(Br)cc12.CCCCCC shows IC50 below 60 nM
MET

Bench note: check whether CC(=NNS(=O)(=O)c1cc([N+](=O)[O-])ccc1F)c1cnn2ccc(Br)cc12 shows IC50 below 60 nM
NOT MET

* * *

Record set of IC50 for target or system UniProtKB O00329.
Sequence (O00329 whole entry, looked up): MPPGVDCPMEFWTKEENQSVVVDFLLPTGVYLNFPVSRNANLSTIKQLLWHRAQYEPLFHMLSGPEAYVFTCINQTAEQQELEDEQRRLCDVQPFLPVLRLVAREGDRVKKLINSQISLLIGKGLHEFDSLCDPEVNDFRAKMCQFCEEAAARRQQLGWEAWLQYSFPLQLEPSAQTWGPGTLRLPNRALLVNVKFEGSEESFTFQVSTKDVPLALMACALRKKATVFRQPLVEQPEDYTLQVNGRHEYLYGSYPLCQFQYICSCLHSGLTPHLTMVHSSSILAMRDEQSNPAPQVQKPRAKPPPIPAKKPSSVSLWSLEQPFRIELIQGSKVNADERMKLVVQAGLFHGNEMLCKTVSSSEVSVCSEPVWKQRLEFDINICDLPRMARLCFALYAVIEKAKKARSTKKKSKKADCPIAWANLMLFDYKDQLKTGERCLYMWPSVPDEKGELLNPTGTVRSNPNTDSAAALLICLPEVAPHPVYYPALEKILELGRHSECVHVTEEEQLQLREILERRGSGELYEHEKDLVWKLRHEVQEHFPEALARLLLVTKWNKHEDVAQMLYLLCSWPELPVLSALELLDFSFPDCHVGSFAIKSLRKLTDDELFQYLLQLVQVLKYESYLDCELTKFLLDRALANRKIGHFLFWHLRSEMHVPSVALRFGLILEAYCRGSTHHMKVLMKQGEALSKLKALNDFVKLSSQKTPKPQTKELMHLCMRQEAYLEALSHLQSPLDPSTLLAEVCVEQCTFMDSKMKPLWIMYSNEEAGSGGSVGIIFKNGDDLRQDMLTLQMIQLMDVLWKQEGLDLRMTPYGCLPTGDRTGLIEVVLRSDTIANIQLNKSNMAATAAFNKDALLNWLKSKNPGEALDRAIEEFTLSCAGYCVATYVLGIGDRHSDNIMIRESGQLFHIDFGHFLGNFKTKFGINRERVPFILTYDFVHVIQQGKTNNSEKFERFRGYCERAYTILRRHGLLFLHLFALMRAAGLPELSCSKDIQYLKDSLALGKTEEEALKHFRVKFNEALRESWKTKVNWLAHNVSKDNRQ
Dear colleague, please send the value followed by its unit.

Here are 5 compounds together with their reported answers.
Cc1ccc([N+](=O)[O-])cc1S(=O)(=O)NN=C(c1cnn2ccc(C#N)cc12)C(C)C 310 nM
CC(=NNS(=O)(=O)c1cc([N+](=O)[O-])ccc1N(C)CCc1ccncc1)c1cnn2ccc(C#N)cc12 420 nM
CC(=NNS(=O)(=O)c1cc([N+](=O)[O-])ccc1N(C)CCn1ccnc1)c1cnn2ccc(C#N)cc12 860 nM
CC(=NNS(=O)(=O)c1cc([N+](=O)[O-])ccc1N(C)CCc1c[nH]cn1)c1cnn2ccc(C#N)cc12.CCCCCC 170 nM
CNCCN(C)c1ccc([N+](=O)[O-])cc1S(=O)(=O)NN=C(C)c1cnn2ccc(C#N)cc12 390 nM

Could you share what IC50 was measured for CC(=NNS(=O)(=O)c1cc([N+](=O)[O-])ccc1F)c1cnn2ccc(Br)cc12 , tested on UniProtKB O00329?
500 nM

Could you share what IC50 was measured for CC(=NNS(=O)(=O)c1cc([N+](=O)[O-])ccc1N(C)Cc1ccccn1)c1cnn2ccc(Br)cc12 , tested on UniProtKB O00329?
230 nM

Could you share what IC50 was measured for CC(=NNS(=O)(=O)c1cc([N+](=O)[O-])ccc1N(C)Cc1ccccn1)c1cnn2ccc(C#N)cc12 , tested on UniProtKB O00329?
11 nM

Could you share what IC50 was measured for CC(=NNS(=O)(=O)c1cc([N+](=O)[O-])ccc1N(C)CCN(C)C)c1cnn2ccc(C#N)cc12.CCCCCC , tested on UniProtKB O00329?
680 nM

* * *

target: PIK3CA (human)
pIC50: −log10 of the molar value.
Record true whenever pIC50 is at 7 or higher; record false when lower.

Reported pIC50 at or above 7? Cc1ccc([N+](=O)[O-])cc1S(=O)(=O)NN=C(c1cnn2ccc(C#N)cc12)C(C)C
true

Reported pIC50 at or above 7? CCCCCC.CCN(CC)CCN(C)c1ccc([N+](=O)[O-])cc1S(=O)(=O)NN=C(C)c1cnn2ccc(Br)cc12
false

* * *

target: PIK3CA (human) (UniProt P42336)
pIC50: −log10 of the molar value.
Record criterion met whenever pIC50 is at 7 or higher; record criterion not met when lower.

See these solved cases before continuing.
CC(=NNS(=O)(=O)c1cc([N+](=O)[O-])ccc1N(C)Cc1ccccn1)c1cnn2ccc(C#N)cc12 criterion met
CC(=NN(C)S(=O)(=O)c1cc([N+](=O)[O-])ccc1N(C)CCc1ccccn1)c1cnn2ccc(C#N)cc12 criterion not met
CC(=NNS(=O)(=O)c1cc([N+](=O)[O-])ccc1N(C)CCCN1CCOCC1)c1cnn2ccc(Br)cc12 criterion not met
CC(=NNS(=O)(=O)c1cc([N+](=O)[O-])ccc1C)c1cnn2ccc(Br)cc12.CCCCCC criterion met

Reported pIC50 at or above 7? CC(=NNS(=O)(=O)c1cc([N+](=O)[O-])ccc1N(C)Cc1ccncc1)c1cnn2ccc(C#N)cc12
criterion met

Reported pIC50 at or above 7? CC(=NNS(=O)(=O)c1cc([N+](=O)[O-])ccc1N(C)CCc1c[nH]cn1)c1cnn2ccc(C#N)cc12.CCCCCC
criterion met

Reported pIC50 at or above 7? CC(=NNS(=O)(=O)c1cc([N+](=O)[O-])ccc1F)c1cnc2ccc(Br)cn12
criterion not met

Reported pIC50 at or above 7? CC(=NNS(=O)(=O)c1cc([N+](=O)[O-])ccc1N(C)CCN(C)C)c1cnn2ccc(C#N)cc12.CCCCCC
criterion met
